TESTED_SYSTEM: HLA-DRβ1*04:01 (DR4) (Homo sapiens, UniProt P01903+P01911, A100K/A169T/F76Y/I96L/K127E/L162R/M171V/N62H/P40V/Q125Y/R42H/S133A/S149N/S66Y/V115G/V209L/W38E)
PROTOCOL_NOTES: biochemical
Assay type: binding
SETUP_CONDITIONS: apparent equilibrium binding affinity; […]; DR-ELISA; read-out: Kd (nM) DM-
Where no end group is shown, it is not given here.
MEASURED_PROPERTY: Kd (nM)
Expressed in nM, but write only the number.

Query: Name the reported Kd value associated with the sequence QNSLSTEWSPCSVT [QNT-5]
Result: 504
